Hi there, I'd appreciate the recorded IC50 for every entry that follows.
molecular target: Histone deacetylase 3 (Homo sapiens, UniProt O15379); assay: Inhibition of HDAC3 in human HeLa nuclear extract using Boc-Lys(Ac)-AMC or Boc-Lys(Tfa)-AMC as substrate preincubated for 5 mins followed by substrate addition and measured after 30 mins by fluorescence assay; type: cell-free
Sequence (O15379 whole entry): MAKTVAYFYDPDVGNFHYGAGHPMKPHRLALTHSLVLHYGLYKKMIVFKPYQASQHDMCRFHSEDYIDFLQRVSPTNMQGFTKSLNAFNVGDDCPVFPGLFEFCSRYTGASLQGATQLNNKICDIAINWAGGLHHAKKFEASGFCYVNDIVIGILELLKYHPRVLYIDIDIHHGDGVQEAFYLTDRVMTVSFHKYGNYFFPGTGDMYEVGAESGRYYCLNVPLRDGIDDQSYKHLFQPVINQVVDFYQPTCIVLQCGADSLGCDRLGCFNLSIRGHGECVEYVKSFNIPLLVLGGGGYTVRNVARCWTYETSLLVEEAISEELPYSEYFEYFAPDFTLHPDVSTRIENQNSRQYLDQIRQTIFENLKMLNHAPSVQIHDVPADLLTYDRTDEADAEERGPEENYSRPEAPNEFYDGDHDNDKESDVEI
Quick reminder: number only, in µM, skip the unit.

Q: Which value of IC50 has been reported for Nc1ccccc1NC(=O)CCCCCOc1no[n+]([O-])c1S(=O)(=O)c1ccccc1 in the records?
Ans: 0.56

Q: Which value of IC50 has been reported for Nc1ccccc1NC(=O)CCCCCCCOc1no[n+]([O-])c1S(=O)(=O)c1ccccc1 in the records?
Ans: 0.5

Q: Which value of IC50 has been reported for Nc1ccccc1NC(=O)CCCCOc1no[n+]([O-])c1S(=O)(=O)c1ccccc1 in the records?
Ans: 0.62

###

Hi there, I'd appreciate the recorded IC50 for every entry that follows.
test system: HCT-116; experiment: Antiproliferative activity against human HCT-116 cells assessed as inhibition of cell growth incubated for 48 hrs by MTT assay; assay type: functional, cell-based; conditions: HCT-116, 48 h

Q: Which value of IC50 has been reported for Nc1ccccc1NC(=O)CCCCCOc1no[n+]([O-])c1S(=O)(=O)c1ccccc1 in the records?
Ans: 770 nM

Q: Which value of IC50 has been reported for COc1ccc(C(=O)Nc2ccc(NC(=O)Nc3ccccc3N)cc2)cc1 in the records?
Ans: 5290 nM

Q: Which value of IC50 has been reported for Nc1ccccc1NC(=O)CCCCOc1no[n+]([O-])c1S(=O)(=O)c1ccccc1 in the records?
Ans: 930 nM

Q: Which value of IC50 has been reported for Nc1ccccc1NC(=O)CCCCCCCOc1no[n+]([O-])c1S(=O)(=O)c1ccccc1 in the records?
Ans: 790 nM

###

system: K562; assay: Antiproliferative activity against human K562 cells assessed as inhibition of cell growth incubated for 48 hrs by MTT assay; type: functional, cell-based; conditions: K562, 48 h
measurementType: IC50 (µM)
Quick reminder: number only, in µM, skip the unit.

Q: Which value of IC50 has been reported for Nc1ccccc1NC(=O)Nc1ccc(NC(=O)c2cccnc2)cc1 in the records?
Ans: 8.36

###

Hi there, I'd appreciate the recorded pIC50 for every entry that follows.
system: HEL; experiment: Antiproliferative activity against human HEL cells assessed as inhibition of cell growth incubated for 48 hrs by MTT assay; type: functional, cell-based
The quantity pIC50 is defined as the negative base-10 logarithm of the molar concentration.

Q: Which value of pIC50 has been reported for Nc1ccccc1NC(=O)CCCCCOc1no[n+]([O-])c1S(=O)(=O)c1ccccc1 in the records?
Ans: 6.39

Q: Which value of pIC50 has been reported for Nc1ccccc1NC(=O)CCCCCCCOc1no[n+]([O-])c1S(=O)(=O)c1ccccc1 in the records?
Ans: 6.38

Q: Which value of pIC50 has been reported for Nc1ccccc1NC(=O)CCCCOc1no[n+]([O-])c1S(=O)(=O)c1ccccc1 in the records?
Ans: 6.49

###

tested on: HepG2; assay: Cytotoxicity against human HepG2 cells assessed as inhibition of cell growth; format: functional, cell-based
measurementType: pIC50
The quantity pIC50 is defined as the negative base-10 logarithm of the molar concentration.

Q: Which value of pIC50 has been reported for COc1cc2c(cc1OCc1ccc(C(=O)Nc3ccccc3N)cc1)CC[C@@H]1[C@H]3CC[C@@H](O)[C@]3(C)CC[C@@H]21 in the records?
Ans: 6.43
